- Test System: HLA-B*08:01
- Protocol: IEDB peptide-MHC binding, purified MHC/direct/fluorescence; filed as Kd, often an IC50 or EC50 that approximates it; bounds were set here for any values at or beyond the usual limits of such assays
- Condition Notes: source organism: Clostridium botulinum NCTC 2916
pKd: −log10 of the molar value.
Outcome Measure: pKd

Report measured pKd on HLA-B*08:01; entry: "IYDYLRLLY"
≤ 4.70

====

- Test System: HLA-A*11:01
- Protocol: IEDB peptide-MHC binding, purified MHC/competitive/radioactivity; filed as Kd, often an IC50 or EC50 that approximates it; bounds were set here for any values at or beyond the usual limits of such assays
- Condition Notes: source organism: Dengue virus 1 Singapore/S275/1990
Outcome Measure: Kd

Identify measured Kd associated with "LAMGIMILK"
9.52 nM

All figures here come from the Immune Epitope Database (IEDB).
